// data source = patent US7015306B2

# experiment: In vitro serum stability assay (HPLC) of In-111 labeled peptide
# Assay type: in vitro ADME, human
# condition.context: Table 4, human serum, t = 4 h; read-out: Serum Stability, Serum (t = 4 h)
# Description: All reagents were purchased from Sigma unless otherwise noted. The peptide and ^111InCl3 in 0.05 N HCl were incubated in a sodium acetate/ascorbic acid buffer for 30 minutes at room temperature. The reaction was diluted with 5% ethanol/95% PBS before using in subsequent in vitro assays. Human serum was purchased from Sigma (H 1388). The labeled peptide was incubated in either human serum or rat urine at 37EC for the specified amount of time. […]
Where a SMILES comes first, the peptide text is derived from it. [ ]: non-standard residue; d: D form. The star is where a group is joined. DTPA = O=C(O)CN(CCN(CC(=O)O)CC(=O)O)CCN(CC(=O)O)CC(=O)*; Phe(4-guanidino) = N=C(N)Nc1ccc(C[C@H](N)C(=O)O)cc1; X1 = CC(C)C[C@@H](CN[C@@H](CC(C)C)C(N)=O)N*; Tle = CC(C)(C)[C@H](N)C(=O)O
measured.metric: remaining at 4 h (%)
Give your result in % as a bare value.

Answer with reported remaining at 4 h of CC(C)C[C@@H](CN[C@@H](CC(C)C)C(N)=O)NC(=O)[C@H](Cc1ccc(O)cc1)NC(=O)[C@@H]1CCCN1C(=O)[C@H](CCCNC(=N)N)NC(=O)[C@H](Cc1ccc(NC(=N)N)cc1)NC(=O)[C@@H]1CCCN1C(=O)[C@@H](CCCCN)NC(=O)CN(CCN(CCN(CC(=O)O)CC(=O)O)CC(=O)O)CC(=O)O [metal not drawn] ({DTPA}-[dK]P[Phe(4-guanidino)]RPY-X1) 76.2

Item CC(C)C[C@H](NC(=O)[C@@H](NC(=O)[C@H](Cc1ccc(O)cc1)NC(=O)[C@@H]1CCCN1C(=O)[C@H](CCCN=C(N)N)NC(=O)[C@H](Cc1ccc(NC(=N)N)cc1)NC(=O)[C@@H]1CCCN1C(=O)[C@@H](CCCCN)NC(=O)CN(CCN(CCN(CC(=O)O)CC(=O)O)CC(=O)O)CC(=O)O)C(C)(C)C)C(=O)O [In-111-DTPA-DK-P-F(Gu)-R-P-Y-tBuG-L, metal not drawn] ({DTPA}-[dK]P[Phe(4-guanidino)]RPY[Tle]L-OH) : provide remaining at 4 h 72

Using known records, supply remaining at 4 h for CC(C)C[C@H](NC(=O)[C@@H](NC(=O)[C@H](Cc1ccc(O)cc1)NC(=O)[C@@H]1CCCN1C(=O)[C@H](CCCNC(=N)N)NC(=O)C(NC(=O)[C@@H]1CCCN1C(=O)[C@@H](CCCCN)NC(=O)CN(CCN(CCN(CC(=O)O)CC(=O)O)CC(=O)O)CC(=O)O)C1CCN(C(=N)N)CC1)C(C)(C)C)C(=O)O (single isomer, unassigned) [In-111-DTPA-DK-P-G(PipAm)-R-P-Y-tBuG-L, metal not drawn] 87.5

====

# experiment: In vitro serum stability assay (HPLC) of In-111 labeled peptide
# Assay type: in vitro ADME, human
# condition.context: human serum, 37EC, 4 hours
*1 amine or outer side, *2 acyl side, *3 side chain or, on linkers, in order; H or OH if unused. Where a SMILES comes first, the peptide text is derived from it. [ ]: non-standard residue; d: D form. The star is where a group is joined. ξ: configuration not given here. Ala(piperidin-4-yl) = O=C([C@H](CC1CCN([*:3])CC1)N[*:1])[*:2]; Gly(1-amidinopiperidin-4-yl) = N=C(N)N1CCC([C@H](N)C(=O)O)CC1; DTPA = O=C(O)CN(CCN(CC(=O)O)CC(=O)O)CCN(CC(=O)O)CC(=O)*; Phe(4-guanidino) = N=C(N)Nc1ccc(C[C@H](N)C(=O)O)cc1; ξGly(4-Pip(1-amidino)) = N=C(N)N1CCC(C(N)C(=O)O)CC1; ξPhe(4-guanidino) = N=C(N)Nc1ccc(CC(N)C(=O)O)cc1; X1 = CC(C)C[C@@H](CN[C@@H](CC(C)C)C(N)=O)N*; Chg = N[C@H](C(=O)O)C1CCCCC1; Tle = CC(C)(C)[C@H](N)C(=O)O
Please respond with 1.0 when measured % of peptide at 4 hours after incubation at 37EC, Serum is strictly beneath 90%, and with 0.0 in all other cases.

A record lists CC(C)C[C@@H](CN[C@@H](CC(C)C)C(N)=O)NC(=O)[C@H](Cc1ccc(O)cc1)NC(=O)[C@@H]1CCCN1C(=O)[C@H](CCCNC(=N)N)NC(=O)[C@H](Cc1ccc(NC(=N)N)cc1)NC(=O)[C@@H]1CCCN1C(=O)[C@@H](CCCCN)NC(=O)CN(CCN(CCN(CC(=O)O)CC(=O)O)CC(=O)O)CC(=O)O ({DTPA}-[dK]P[Phe(4-guanidino)]RPY-X1; C-terminus assumed) . Is its % of peptide at 4 hours after incubation at 37EC, Serum below 90%? 1.0

Does the reported % of peptide at 4 hours after incubation at 37EC, Serum of CC(C)C[C@H](NC(=O)[C@@H](NC(=O)[C@H](Cc1ccc(O)cc1)NC(=O)[C@@H]1CCCN1C(=O)[C@H](CCCNC(=N)N)NC(=O)[C@@H](NC(=O)[C@@H]1CCCN1C(=O)[C@H](CC1CCNCC1)NC(=O)CN(CCN(CCN(CC(=O)O)CC(=O)O)CC(=O)O)CC(=O)O)C1CCN(C(=N)N)CC1)C(C)(C)C)C(=O)O ({DTPA}-[Ala(piperidin-4-yl)]P[Gly(1-amidinopiperidin-4-yl)]RPY[Tle]L-OH) stay below 90%? 0.0

Hello, is % of peptide at 4 hours after incubation at 37EC, Serum of the following compound strictly smaller than 90%? CC(C)C[C@H](NC(=O)[C@@H](NC(=O)[C@H](Cc1ccc(O)cc1)NC(=O)[C@@H]1CCCN1C(=O)[C@H](CCCNC(=N)N)NC(=O)C(Cc1ccc(NC(=N)N)cc1)NC(=O)[C@@H]1CCCN1C(=O)[C@@H](CCCCN)NC(=O)CN(CCN(CCN(CC(=O)O)CC(=O)O)CC(=O)O)CC(=O)O)C(C)(C)C)C(=O)O (stereo partly drawn) [Compound IX] ({DTPA}-[dK]P[ξPhe(4-guanidino)]RPY[Tle]L-OH) 1.0

Here's an entry: CC(C)C[C@H](NC(=O)[C@@H](NC(=O)[C@H](Cc1ccc(O)cc1)NC(=O)[C@@H]1CCCN1C(=O)[C@H](CCCNC(=N)N)NC(=O)C(NC(=O)[C@@H]1CCCN1C(=O)[C@@H](CCCCN)NC(=O)CN(CCN(CCN(CC(=O)O)CC(=O)O)CC(=O)O)CC(=O)O)C1CCN(C(=N)N)CC1)C1CCCCC1)C(=O)O (stereo partly drawn) ({DTPA}-[dK]P[ξGly(4-Pip(1-amidino))]RPY[Chg]L-OH) . Is its % of peptide at 4 hours after incubation at 37EC, Serum below 90%? 1.0
